Test system: Pseudomonas fluorescens HPPD polypeptide (wild-type and mutants)
Test protocol: Coupled HPPD activity assay: turnover and residual turnover in crude HPPD polypeptide extracts with and without Cmpd. 1
Format: biochemical
Condition set: absence of Cmpd. 1; changes in absorbance (OD) at 320 nm in the coupled assay, 30 min

- Molecule: "SEQ ID NO:30 (protein, mutant HPPD polypeptide) MADLYENPMGLMGFEFIEFASPTPGTLEPIFEIMGFTKVATHRSKNVHLYRQGEINLILNNEPNSIASYFAAEHGPSVCGMAFRVKDSQKAYNRALELGAQPIHIDTGPMELNLPAIKGIGGAPLYLIDRFGEGSSIYDIDFVYLEGVERNPVGAGLKVIDHLTHNVYRGRMVYWANFYEKLFNFREARYFDIKGEYTGLTSKAMSAPDGMIRIPLNEESSKGAGQIEEFLMQFNGEGIQHVAFLTDDLVKTWDALKKIGMRFMTAPGDEYYEMLEGRLPDHGEPVDQLQARGILLDGSSVEGDKRLLLQIFSEQLMGPVFFEFIQRKGDDGFGPHSFKVLFEQIERDQVRRGVLTAD"
  Turnover: 0.294
